Tested on: HELA cell line
Assay info: SRB cytotoxicity assay, HELA cervical cancer cell line
Measurement context: Homo sapiens, HeLa, 72 h, read-out: Cytotoxicity IC50 value, HELA cell line, SRB, 72 h, 0.1-200 μg/mL range, mean ± SD; NI = lack of cytotoxicity in range
Description: All reagents and chemicals of analytical grade were obtained from Sigma (Dorset, UK); unless stated otherwise. All chemicals, reagents and solvents (of analytical grade) were used directly without further purification. MCF7 cell line ATCC® HTB-22™, T47D cell line ATCC® HTB-133™, K562 cell line ATCC® CCL-243™, Panc1 cell line ATCC® CRL-1469™. […] The cytotoxicity measurements were determined using Sulforhodamine B (SRB) colorimetric assay for cytotoxicity screening. […]
Measure: IC50

Problem: Any idea what its IC50 is? The compound is `COc1ccc(Nc2c(F)cc3c(=O)c(C(=O)O)cn(C4CC4)c3c2N)cc1`
Result: 255 µM

Problem: Any idea what its IC50 is? The compound is CCn1cc(C(=O)O)c(=O)c2cc(F)c(Nc3ccccc3OC)c(N)c21 [12a]
Result: 25.4 µM

Problem: Any idea what its IC50 is? The compound is CCn1cc(C(=O)O)c(=O)c2cc(F)c(Nc3cccc(OC)c3)c([N+](=O)[O-])c21 [11b]
Result: 197 µM

Problem: Any idea what its IC50 is? The compound is `CCCCc1ccc(Nc2c(F)cc3c(=O)c(C(=O)O)cn(C4CC4)c3c2N)cc1`
Result: 67.3 µM

Problem: Any idea what its IC50 is? The compound is CCn1cc(C(=O)O)c(=O)c2cc(F)c(Nc3ccc(OC)cc3OC)c([N+](=O)[O-])c21 [11c]
Result: > 200 µg/mL
